Test system: Yap1 mRNA
assay.comment: Antisense inhibition of human Yap1 in SNU-449 cells by modified oligonucleotides, single dose (Example 5, RTS36584)
Assay type: cell-based
assay.conditions: Yap1 mRNA, percent of untreated control; modified oligonucleotides targeting SEQ ID NO: 1 and 2; Table 47
Strand notation (5' to 3'): a small letter for the sugar, then the base; units joined by * are phosphorothioate-linked, units joined directly phosphodiester-linked; [ ] holds rarer units or linkages, { } end groups; capitals alone tell only the bases. e = 2'-O-(2-methoxyethyl) (MOE); k = constrained ethyl (cEt); [5mC] = 5-methylcytosine; d = 2'-deoxy (DNA)

- substance: "1197177 (antisense kA*kT*kT*dG*dT*d[5mC]*dT*d[5mC]*dA*dT*dG*d[5mC]*d[5mC]*kT*kT*kA) [Compound 1197177]"
  unit.label: "% UT"
  YAP1 (% UT): 15
- substance: "1197178 (antisense kA*kA*kT*dT*dG*dT*d[5mC]*dT*d[5mC]*dA*dT*dG*d[5mC]*k[5mC]*kT*kT) [Compound 1197178]"
  unit.label: "% UT"
  YAP1 (% UT): 12
- substance: "1198875 (kA*kA*dA*dG*dT*dG*dT*dA*dT*dG*dT*k[5mC]*eA*kG*eA*kA; antisense) [Compound 1198875]"
  unit.label: "% UT"
  YAP1 (% UT): 5
- substance: "1009326 (kT*kA*kT*dT*dA*dG*dA*dG*dT*dA*dT*dG*dT*kG*kG*k[5mC]; antisense) [Compound 1009326]"
  unit.label: "% UT"
  YAP1 (% UT): 10
- substance: "1197211 (antisense kT*kA*kT*dG*dT*dA*dA*dT*dA*dT*dT*dG*d[5mC]*kA*kA*kT) [Compound 1197211]"
  unit.label: "% UT"
  YAP1 (% UT): 80
- substance: "1009324 (kA*kG*kT*dA*dT*dG*dT*dG*dG*d[5mC]*dA*dA*dT*kA*kA*kT; antisense) [Compound 1009324]"
  unit.label: "% UT"
  YAP1 (% UT): 27
- substance: "1197222 (antisense kA*kA*kG*dT*dA*dA*dG*dG*dT*dT*dT*d[5mC]*d[5mC]*k[5mC]*kA*kG) [Compound 1197222]"
  unit.label: "% UT"
  YAP1 (% UT): 40
- substance: "1198876 (kT*kA*dA*dA*dG*dT*dG*dT*dA*dT*dG*kT*e[5mC]*kA*eG*kA; antisense) [Compound 1198876]"
  unit.label: "% UT"
  YAP1 (% UT): 31
- substance: "1009394 (kT*kA*kT*dA*dA*d[5mC]*dT*dG*dG*dG*d[5mC]*dA*dA*kA*kT*kT; antisense) [Compound 1009394]"
  unit.label: "% UT"
  YAP1 (% UT): 73

---

Documented IC50 across a set of substances
Tested on: Yap1 mRNA
assay.comment: Dose-dependent inhibition of human Yap1 in A-431 cells (Example 6, 5,000 cells per well, RTS4814)
Format: cell-based
assay.conditions: Table 55; A-431 cells 5,000 cells per well, free uptake, RTS4814
Strand notation (5' to 3'): a small letter for the sugar, then the base; units joined by * are phosphorothioate-linked, units joined directly phosphodiester-linked; [ ] holds rarer units or linkages, { } end groups; capitals alone tell only the bases. k = constrained ethyl (cEt); [5mC] = 5-methylcytosine; d = 2'-deoxy (DNA)

- substance: "716501 (antisense kG*k[5mC]*kA*d[5mC]*dT*dG*dA*dA*dA*dG*dT*dA*d[5mC]*kT*kT*kA) [compound 716501]"
  IC50: "> 4 µM"
- substance: "716543 (antisense kT*kA*kT*dT*dT*dG*dT*dA*dG*d[5mC]*dA*dA*dA*kG*kT*k[5mC]) [compound 716543]"
  IC50: "> 4 µM"
- substance: "716489 (antisense kA*kG*kT*dT*dA*dA*dT*dT*d[5mC]*dA*dT*dG*d[5mC]*kT*k[5mC]*kG) [compound 716489]"
  IC50: "> 4 µM"
- substance: "716554 (antisense kA*kT*kG*d[5mC]*dT*dT*dG*d[5mC]*dG*dA*dG*dG*dA*kT*kA*kA) [compound 716554]"
  IC50: "> 4 µM"
- substance: "716500 (antisense kA*kA*k[5mC]*dT*dT*d[5mC]*dT*dT*dA*d[5mC]*dT*dT*d[5mC]*k[5mC]*kA*kA) [compound 716500]"
  IC50: "> 4 µM"
- substance: "716387 (antisense kT*kA*kT*dG*dG*dT*dT*dT*dA*dT*dA*dT*dA*kG*kT*kA) [compound 716387]"
  IC50: "> 4 µM"
- substance: "716479 (antisense kG*kA*kA*d[5mC]*dA*dA*dT*d[5mC]*dT*dT*dG*dA*dA*kG*kG*k[5mC]) [compound 716479]"
  IC50: "> 4 µM"
- substance: "716548 (antisense kG*kA*kG*dT*dT*dT*d[5mC]*dA*dA*d[5mC]*dA*d[5mC]*dT*kG*kA*kT) [compound 716548]"
  IC50: "> 4 µM"
- substance: "716524 (antisense kA*k[5mC]*kT*dG*dA*dG*dG*dT*dA*dT*dA*dA*d[5mC]*kT*kG*kG) [compound 716524]"
  IC50: "> 4 µM"
- substance: "716503 (antisense kT*kT*kA*dT*dT*dA*dT*dG*dA*dG*dT*dG*dA*kT*k[5mC]*kA) [compound 716503]"
  IC50: "> 4 µM"
- substance: "716537 (antisense kA*kT*kG*dT*dG*d[5mC]*dT*d[5mC]*d[5mC]*dA*dT*d[5mC]*dA*kA*k[5mC]*k[5mC]) [compound 716537]"
  IC50: "> 4 µM"

// data source = patent US11214803B2
